# Condition Description: in isopropanol, 298.15 K

Structure As Smiles	solubility (mole fraction)
CC(C)c1ncc[nH]1	0.101

---

# Condition Description: in acetone, 280.65 K

Structure As Smiles	solubility (mole fraction)
CC(C)c1ncc[nH]1	0.0946

---

# Condition Description: in ethanol, 303.15 K
Recorded Metric: solubility (mole fraction)

Structure As Smiles	Recorded Metric	Numeric Readout
CC(C)c1ncc[nH]1	solubility (mole fraction)	0.273

---

# Condition Description: in 2-butanone, 278.15 K
Recorded Metric: solubility (mole fraction)

Structure As Smiles	Recorded Metric	Numeric Readout
CC(C)c1ncc[nH]1	solubility (mole fraction)	0.11

---

# Condition Description: in ethanol, 280.65 K
Recorded Metric: solubility (mole fraction)

Structure As Smiles	Recorded Metric	Numeric Readout
CC(C)c1ncc[nH]1	solubility (mole fraction)	0.196
